subjectOfTest: AgBem1-D1
assayProcedure: SPOT peptide array binding signal intensity (averaged, normalized) (arbitrary units (background-subtracted, floor 0; scale differs between SH3 domains)); higher = stronger binding of the SH3 domain to the peptide
recordedMetric: SPOT peptide array binding signal intensity
I only need the number, thanks.

A selection of reference data follows.
RMVRRRPLRVQFSAR
477
GSKSGPPPRPKKPST
66.5
KRNRLKILLPFLEQS
102

Please fill in: SPOT peptide array binding signal intensity reported for SHRLWLYAAPKRPKT = 110

For reference, reported SPOT peptide array binding signal intensity for LKRITSPPLPPRADS stands at 59

Lab note: measured SPOT peptide array binding signal intensity of RPVPPPPPMRTTTEG was 201

// sample IKTRSVPKIPSIESV , its SPOT peptide array binding signal intensity was 40
